Value source: the supplement of paper PMC5844555

Test system: PHF6
assay-details: 3' UTR reporter interaction score (median-centred robust z-score of log2 firefly/Renilla activity); higher = less repression of the 3' UTR reporter
test-context: HEK293T; 48 h
assay-endpoint: 3' UTR reporter interaction score

>>> df
                    sequence                     assay_endpoint  result
 0   UAUGGCACUGGUAGAAUUCACUG  3' UTR reporter interaction score   -1.31
 1  UGUGCUUGCUCGUCCCGCCCGCAG  3' UTR reporter interaction score     1.4
 2     AAUAAUACAUGGUUGAUCUUU  3' UTR reporter interaction score    1.16
 3     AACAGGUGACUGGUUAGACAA  3' UTR reporter interaction score  -0.792
 4     AAAGCGCUUCUCUUUAGAGGA  3' UTR reporter interaction score  -0.164
 5    AACGCACUUCCCUUUAGAGUGU  3' UTR reporter interaction score   -1.36
 6     UAGUAGACCGUAUAGCGUACG  3' UTR reporter interaction score   0.821
 7    CAACCUGGAGGACUCCAUGCUG  3' UTR reporter interaction score  -0.934
 8    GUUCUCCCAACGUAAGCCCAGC  3' UTR reporter interaction score   0.685
 9    GUGAAAUGUUUAGGACCACUAG  3' UTR reporter interaction score    1.07
10    UAGCAGCACAUCAUGGUUUACA  3' UTR reporter interaction score   0.453
11    UGUAAACAUCCUACACUCAGCU  3' UTR reporter interaction score   -1.63
12    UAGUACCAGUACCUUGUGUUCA  3' UTR reporter interaction score  -0.322
13    UCGGAUCCGUCUGAGCUUGGCU  3' UTR reporter interaction score  -0.555
14    UACCCUGUAGAACCGAAUUUGU  3' UTR reporter interaction score   0.333

---

Test system: FBXW7
assay-details: 3' UTR reporter interaction score (median-centred robust z-score of log2 firefly/Renilla activity); higher = less repression of the 3' UTR reporter
test-context: HEK293T; 48 h
Output Y for 3' UTR reporter interaction score not less than 0.1; output N otherwise.

>>> print(df.to_string())
                     sequence  assigned_label
 0     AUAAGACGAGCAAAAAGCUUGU               Y
 1      AGGGUAAGCUGAACCUCUGAU               Y
 2   AAUCCUUGGAACCUAGGUGUGAGU               N
 3      UGUGACUGGUUGACCAGAGGG               N
 4   AAAGACAUAGGAUAGAGUCACCUC               Y
 5     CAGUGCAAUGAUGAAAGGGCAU               Y
 6      GAGUGCCUUCUUUUGGAGCGU               Y
 7     UCGUGCAUCCCUUUAGAGUGUU               Y
 8     AAAGUGCUGUUCGUGCAGGUAG               Y
 9       CCUCUGGGCCCUUCCUCCAG               N
10     UCACAGUGAACCGGUCUCUUUC               N
11     UUCACCACCUUCUCCACCCAGC               N
12     CUGGCCCUCUCUGCCCUUCCGU               N
13      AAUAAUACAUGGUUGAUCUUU               N
14      GGUAGAUUCUCCUUCUAUGAG               Y
15      UGCUGACUCCUAGUCCAGGGC               Y
16     AACAUUCAACCUGUCGGUGAGU               Y
17     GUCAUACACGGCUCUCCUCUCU               N
18      AUGAUCCAGGAACCUGCCUCU               Y
19  AAAGUGCAUCCUUUUAGAGUGUUAC               Y
20  AGGCACCAGCCAGGCAUUGCUCAGC               N
21    UCCAGUACCACGUGUCAGGGCCA               N
22      GCCUGCUGGGGUGGAACCUGG               N
23     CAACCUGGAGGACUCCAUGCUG               N
24   AGCUACAUCUGGCUACUGGGUCUC               Y
25     UCUCCCAACCCUUGUACCAGUG               N
26        AAGCAGCUGCCUCUGAGGC               N
27     GGCUGGCUCGCGAUGUCUGUUU               Y
28     UAUUGCUUAAGAAUACGCGUAG               N
29     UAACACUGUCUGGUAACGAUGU               N
30     AAAGUGCAUCUUUUUAGAGGAU               Y
31      CUCCAGAGGGAUGCACUUUCU               N
